# TEST SYSTEM: Mu-type opioid receptor (Cavia porcellus, UniProt P97266)
# Sequence (P97266 whole entry): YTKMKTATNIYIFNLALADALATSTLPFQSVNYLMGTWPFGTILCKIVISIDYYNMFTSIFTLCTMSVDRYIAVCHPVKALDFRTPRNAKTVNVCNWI
# ASSAY REMARKS: Agonist activity at MOR in Dunkin-Hartley guinea pig ileum assessed as inhibition of EFS-induced contractions incubated for 60 mins
Below: a set of entries, each annotated with reported EC50.

{"columns": ["STRUCTURE SMILES STRING", "EC50 (nM)"],
 "data": [
  ["C[C@H]1[C@H]2Cc3ccc(O)cc3[C@]1(C)CCN2CCC(=O)Nc1ccccc1", 794],
  ["C[C@@H](NC(=O)[C@@H](N)Cc1ccc(O)cc1)C(=O)NCC(=O)N(C)[C@@H](Cc1ccccc1)C(=O)NCCO", 158],
  ["C[C@H]1[C@H]2Cc3ccc(O)cc3[C@]1(C)CCN2CCC(=O)Nc1cccc2cnccc12", 20000]
]}
